target: recombinant HA of influenza B virus B/Brisbane/08 (Victoria clade) (influenza B virus B/Brisbane/08 …); assay: recombinant HA ELISA (AttoPhos fluorescence, mean of triplicates)
Record form. Attribute: fold reactivity over background. Fill in for each entry.
Numbers only, in fold over background.

binder	unit tag	recorded value
TRL832 (antibody, V domains shown) VH: QVQLVESGPGLMKPSETLSLTCTVSGGSVSNYYWSWIRQPPGKGLEWIGYVFYSGSSNYNPSLNNPSLKSRVTISIDTSNNQFSLKLSSVTAADTAVYYCARGRVNSGYDWGPNFDSWGQGALVTVSS VL: DIVLTQAPSVSVSPGQTASITCSGDRLGEKFASWYQQKPGQSPVLVIYEDSKRPSGIPDRFSGSNSGNTATLTISGTQIMDEGDFFCQAWDSSTVVFGGGTKLTVLG	fold over background	25.6
TRL053 (antibody, V domains shown) VH: QVQLVQSGAEVRKPGSSVKVSCKVSGGIIRKYAINWVRQAPGQGLEWMGGIIAIFNTANYAQKFQGRVTITADESTSTVYMELSSLRSEDTALYYCARGMNYYSDYFDYWGQGSLVTVSP VL: EIVLTQSPGTLSLSPGERATLSCRASQSVRSNNLAWYQHKPGQAPRLLIFGASSRATGIPDRFSGSGSGTDFTLTISRLEPEDFAVYYCQQYGSSPALTFGGGTKVEIKR	fold over background	1
TRL841 (antibody, V domains shown) VH: QVQLVESGGGVVQPGRSLRLSCAASGFTFSSYGIYWVRQAPGKGLEWVAFISYDEINKFYADSVKGRFTISRDNSKNTVFLQMNSLRDEDTAVYYCAKPLRGSYRYFDLWGRGTVVTVSS VL: DIVMTQPPATLSVSPGERATLSCGASQGLGSNLAWYQQKPGQAPRLLIYAASTRATGITARFSGSGSGTEFTLTINSLQSEDFALYYCQQYTYWPLTFGGGTKVEIKR	fold over background	25.6
TRL849 (antibody, V domains shown) VH: QVQLVESGPGLVKPSQTLSLTCTVSGGSISNGGYHWSWIRQHPGKGLEWIGNIYYRGSTFYDPSLKSRVTISVDTSKSQFSLKLTSVTAADTAVYYCARMPLANYDLLTGLYIGAFDLWGQGTMVTVSS VL: DIVLTQSPATLSVSPGERATLSCRASQSVNRNLAWFQQIPGQAPRLLIFDASTRAADIPARFSGGGSGAEFTLTVSSLQPEDFAVYYCQQYDKWPPGFGQGTKVEIKR	fold over background	25.6

Please give fold reactivity over background for each item listed below.
1. TRL845 (antibody, V domains shown) VH: QVQLVQSGGDLVQPGGSLRLSCAASGFTFSRYSMNWVRQAPGMGLEWVAYISDTSRTIYYADSVKGRFTISRDNAKNSLYLQMKSLRDEDTAVYYCARDPDTPFVRAFDSWGQGTLVTVSS VL: DIVLTQSPSFLSASVGDRVTITCRASQLISSYFAWYQQKPGKPPKLLIYAASTLQSGVPSRFSGSGSGTQFSLTISSLQPEDFATYYCQQLNSYPPITFGQGTRLEIKR
2. TRL579 (antibody, V domains shown) VH: QVQLVQSGAEVKKPGASVKVSCKTSGYTFTAYTIHWVRQAPGQRLEWMGWINAGNGHTKYSQRFKGRVTITRDTSARTTYMELRSLTSEDTALYFCARGPETYYYDKTNWLNSHPDEYFQHWGHGTQVTVSS VL: DIQMTQSPSTLSASVGDRVTITCRASQTINNYLAWYQQKPGKAPKLLIYKASSLESGVPSRFSGSGSGTEFTLTISSLQPDDFATYYCQEYNNDSPLTFGGGTKVEIKR
3. TRL812 (antibody, V domains shown) VH: QVQLVQSGGGVVQPGRSLRLSCAASGFNFSSYGMHWVRQAPGKGLEWLSVIWSGGSNKYYADSVKGRFTISRDDSKNTVYLQMNSLRDEDTAVYYCARAHTALTRFRWLDPWGQGILVTVSS VL: DIVMTQSPATLSVSPGEGATLSCRASQGIGSNLAWYQHKPGQAPRLLIYAASTRATGVPARFSGSGSGTEFTLTISSLQSEDLAVYFCQQYNTWPLTFGGGTKVEIIR

Result:
1. 25.6
2. 1
3. 25.6
